Values compiled from ChEMBL document CHEMBL3988442.

Tested on: Mycobacterium tuberculosis
Test: Cornell - Phenotypic assay to identify agents that inhibit growth of Mycobacterium tuberculosis
Assay type: functional
Design: scale not given: direction of the effect not stated beside the values
Settings: 10 mM as filed; unlikely as a test dose
The whole screen tested about 53,000 compounds, of which about 900 (1.7%) showed an effect of 50% or more. Shown is part of a subset that was picked to be rich in strong results.
Assay Readout: Percent Effect (%)
Give bare numbers, in %.

- Compound: "CC(C)N(C(=O)CCc1ccco1)C1CCOCC1"
  Percent Effect (%): 2.754
- Compound: "Cc1nn(C)c(C)c1-c1ccc(=O)n(C(C)C(=O)NC2CC2)n1 (stereo not given)"
  Percent Effect (%): 11.69
- Compound: "CCCN1C[C@H]2CC[C@@H]1CN(Cc1ccc(-n3cccn3)cc1)C2"
  Percent Effect (%): 53.91
- Compound: "CNc1cc(CCNC(=O)C2CCCC2)nc(-c2ccccn2)n1"
  Percent Effect (%): 52.1
- Compound: "Cc1noc(C)c1-c1cc(CCC2CN(C(=O)C(C)C)CCO2)ncn1 (stereo not given)"
  Percent Effect (%): 37.61
- Compound: "CC(C)c1nc(O)c2nnn(C[C@@H]3CCCN(Cc4ccsc4)C3)c2n1"
  Percent Effect (%): 7.526
- Compound: "Cc1ncc(-c2ccccn2)c(CCNC(=O)C2CCCC2)n1"
  Percent Effect (%): -18.28
- Compound: "Cc1cnn(CC2CCCN2Cc2nc3ccccc3n2C)c1 (stereo not given)"
  Percent Effect (%): 81.85
- Compound: "Cc1nccn1Cc1nnc(C2CCCN(c3ncccn3)C2)n1C (stereo not given)"
  Percent Effect (%): -33.54
- Compound: "Cc1cccc(=O)n1CCC(=O)N1CC[C@@](O)(C2CCC2)[C@H](C)C1"
  Percent Effect (%): 13.12

Please look at the items below and tell me Percent Effect for each one, in order.
1. CN(C)CC(=O)N1CCCC1c1ccccn1 (stereo not given)
2. Cn1ncc2c1CN(Cc1ccc(F)cc1)CC2COCC1CC1.O=C(O)C(F)(F)F.O=C(O)C(F)(F)F (stereo not given)
3. O=C(NCC(O)c1ccccc1)Nc1cccs1 (stereo not given)
4. Cc1csc(CNC(=O)NCC(O)c2ccccc2)n1 (stereo not given)
5. O=C(Nc1ccc2c(c1)OCO2)N1CCN(CCn2ccnc2)CC1
6. CC(C)Oc1cccc(C(O)CNC(=O)NCc2cccs2)c1 (stereo not given)
7. CC[C@H]1CN(C(=O)c2cccc(-n3cnnc3)n2)CC[C@@]1(C)O
8. CC(C)n1nccc1NC(=O)CN1CCc2sccc2C1

Solution:
-4.262
-21.09
59.31
-28.19
-27.6
7.446
-27.2
2.695
